# Test system: Streptococcus
# test name: Group A Streptococcus viability loss, dose response, counter-screen for streptokinase expression inhibitor project, luminescence, BacTiterGlo (AID 1915);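 further: potency for reduction of bacterial viability or growth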
# Format: functional, organism-based
Activity calls are given as the source filed them. No stated cut-off is given here; in the data, actives have a measured EC50 and inactives only a lower limit.
Consider the following molecules and their measured EC50 readings.

- molecule: "Cc1ccsc1C(=O)N(c1nc2ccccc2s1)c1c(C)cccc1C"
  EC50: "> 150 µM (not active)"
- molecule: "CC(C)C(=O)NC(c1cccs1)c1cc([N+](=O)[O-])c2cccnc2c1O (stereo not given)"
  EC50: "6.98 µM (active)"
- molecule: "CC(=N)/C(C#N)=C(/O)CSc1nc2cc(Cl)ccc2c(=O)n1Cc1ccco1"
  EC50: "16.2 µM (active)"
- molecule: "FC(F)(F)c1cccc(Nc2nc(N3CCCC3)nc(N3CCCC3)n2)c1"
  EC50: "9.85 µM (active)"
- molecule: "O=c1cc(N2CCCCC2)c(-c2ccccc2)nn1Cc1ccc(Cl)cc1Cl"
  EC50: "8.6 µM (active)"
- molecule: "N=C(N)c1ccc(OCCCCCOc2ccc(C(=N)N)cc2)cc1"
  EC50: "< 0.06 µM (active)"
- molecule: "CC(=O)NS(=O)(=O)c1ccc(/N=c2\\ssc3c2-c2ccc(C)cc2NC3(C)C)cc1"
  EC50: "12.1 µM (active)"
- molecule: "CCN1/C(=C/c2ccc3cc(C)ccc3[n+]2CC)Sc2cc(C)c(C)cc21"
  EC50: "8.85 µM (active)"
- molecule: "CC(C)C(=O)NC(c1ccco1)c1ccc2cccnc2c1O (stereo not given)"
  EC50: "3.87 µM (active)"
- molecule: "Cc1cc2oc(=O)cc(CN(C)Cc3ccccc3)c2cc1C(C)C"
  EC50: "> 150 µM (not active)"
- molecule: "Cc1cccc(-c2nnc(NC(=O)c3ccc(Cl)cc3)o2)c1"
  EC50: "0.81 µM (active)"
- molecule: "O=C(NC(=S)NNC(=O)c1ccccc1[N+](=O)[O-])c1ccc(Br)cc1"
  EC50: "11.6 µM (active)"
- molecule: "CCCCCCCCCCC(=O)NNC(=O)c1c(O)c2ccccc2n(CC)c1=O"
  EC50: "4.38 µM (active)"
- molecule: "COc1ccc2oc(C(=O)N3CCN(C(c4ccccc4)c4ccccc4)CC3)c(C)c2c1"
  EC50: "> 150 µM (not active)"
- molecule: "O=C(CSC(=S)N1CCCCC1)Nc1nc(-c2ccccc2)c(-c2ccccc2)o1"
  EC50: "> 150 µM (not active)"

Where these numbers come from: ChEMBL document CHEMBL1201862
